Data origin, for the record: paper PMC10397247

tgt: T1, 4H2619-bN
T1 chain: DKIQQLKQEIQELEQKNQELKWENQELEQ
assay-remarks: two-hybrid library CCNG1;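 further: natural log of median RNA to DNA barcode read ratio; higher means stronger binding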
property-label: interaction score

Known interaction score results, listed for orientation:
- binder: "DENQQLEQEIQELEQENQELEWKIQELKQ [4H1046-bN]"
  experimental-value: -1.35
- binder: "DENQQLEQKIQELKQEIQELEWENQELEQ [4H1347-bN]"
  experimental-value: -1.17
- binder: "DENQQLEQEIQELEQKIQELKWKNQELKQ [4H1072-bN]"
  experimental-value: 0.775
- binder: "DEIQQLEQENQELEQENQELEWEIQELEQ [4H145-bN]"
  experimental-value: -0.87

a. DKIQQLKQEIQELEQEIQELEWKNQELKQ [4H2568-bN]
b. DKIQQLKQEIQELEQKNQELKWENQELEQ [4H2619-bN]
Incoming: Smaller interaction score value? Options are a and b Select an item and report its label.
Outgoing: a
